// provenance: the RepoRT retention time repository

- Measurement description: Waters ACQUITY UPLC HSS T3, 0.4 mL/min; A: water + 0.1% formic acid; B: acetonitrile + 0.1% formic acid; gradient (min/%B) 0/5 1.5/5 12/95 14/95 14.01/100 17/100
- Applied conditions: stereoisomer not certain
Observable: LC retention time (min)

Sample answers from the record:
Notebook: CNC(CC(=O)O)C(=O)O (stereo not drawn) , LC retention time read as 0.786

Notebook: CCC(C)C(N)C(=O)O (stereo not drawn) , LC retention time read as 1.31

I = CCC=CCC=CCC=CCCCCCCCC(=O)OC(COC(=O)CCCCCCCCCCCCCCC)COP(=O)(O)OCC(O)CO (stereo not drawn)
II = CC1CCC(C(C)(O)CO)CC1OC1OC(CO)C(O)C(O)C1O (stereo not drawn)
III = CCCCCC(O)C=CC1OC(O)CC(O)C1CC=CCC(=O)O (stereo not drawn)
IV = CCCC(=O)OCCC(S)CCC (stereo not drawn)
V = CC(C)C(=O)OC(CC(=O)[O-])C[N+](C)(C)C (stereo not drawn)
# input Order the records by LC retention time, with each subsequent value no larger than the one before. Give your ranking as a list of the labels in the requested order.
# output I, III, II, V, IV

###

- Measurement description: Waters ACQUITY UPLC HSS T3, 0.4 mL/min; A: water + 0.1% formic acid; B: acetonitrile + 0.1% formic acid; gradient (min/%B) 0/5 1.5/5 12/95 14/95 14.01/100 17/100
- Applied conditions: stereoisomer not certain
Observable: LC retention time (min)

1 = CC(CP(CCCCCCS(=O)(=O)[O-])CCCCCCS(=O)(=O)[O-])P(CCCCCCS(=O)(=O)[O-])CCCCCCS(=O)(=O)[O-] (configuration not stated)
2 = C=C(C)C1CCC(C)(O)C1CC1=C(O)C(=C(O)c2ccccc2)C(=O)C(CC=C(C)C)(CC=C(C)C)C1=O (configuration not stated)
3 = COC(=O)C12CCC(C)(C)CC1C1=CCC3C4(C)CCC(OC(=O)C=Cc5ccc(OC)cc5)C(C)(C)C4CCC3(C)C1(C)CC2 (configuration not stated)
4 = CCCCCCC=CCCCCCCCC(=O)OCC(O)COP(=O)(O)OCCN (configuration not stated)
5 = C[N+](C)(C)CCO
# input Using the recorded LC retention time, list the entries above from smallest to largest. Give your ranking as a list of the labels in the requested order.
# output 5, 1, 4, 2, 3
(5: 0.706 min, 1: 1.02 min, 4: 4.91 min, 2: 8.61 min, 3: 13.1 min)

1 = Nc1ncnc2c1ncn2C1OC(COP(=O)(O)O)C(O)C1O (configuration not stated)
2 = CCCCCC(=O)CCOC1OC(CO)C(O)C(O)C1O (configuration not stated)
# input Quick check, higher LC retention time between 1 and 2 ? Selection: enter the item's label.
# output 2

###

- Measurement description: Waters ACQUITY UPLC HSS T3, 0.4 mL/min; A: water + 0.1% formic acid; B: acetonitrile + 0.1% formic acid; gradient (min/%B) 0/5 1.5/5 12/95 14/95 14.01/100 17/100
- Applied conditions: stereoisomer not certain
Observable: LC retention time (min)

Notebook: `CCCCCON=O` , LC retention time read as 1.02

I = CC(C)C1=CC2(O)CCC3C(C)(C(=O)O)CCCC3(C)C2CC1=O (stereo not drawn)
II = NCCCCC(=O)O
# input Lower value for measured LC retention time? Options: I , II Selection: enter the item's label.
# output II
(II: 1.02 min, I: 4.99 min)
